Provenance of the data: PubChem BioAssay (EPA / NIEHS)

protocol_text: ATG_NFI_CIS: Attagene CIS-FACTORIAL HepG2 Assay for human Nuclear Factor I (NFI) (AID 2282989)
run_conditions: HepG2 cis-regulatory reporter, NFI response element transcription; actives raise or lower the signal
Activity calls are given as the source filed them. The calls were made as follows: active = hit-call score of the fitted dose curve at least 0.9, where 1 is the maximum; inactive = score below 0.9.
Answer with one of the outcomes given here: active, inactive

Reference set (4 entries):
In [3]: df
Out[3]:
                                   compound  qualitative_label
0      Oc1ccc(C(c2ccc(O)cc2)C(Cl)(Cl)Cl)cc1           inactive
1  Cc1nn(C)c(Oc2ccccc2)c1C=NOCc1ccc(C(=O)OC(C)(C)C)cc1             active
2                  COc1c(Cl)ccc(Cl)c1C(=O)O           inactive
3                   CCN(CC)C(=O)c1cccc(C)c1           inactive

Qu. # lookup: test call for CCOC(=O)COc1cc(-n2ncc(C(F)(F)F)c(C)c2=O)c(F)cc1Cl
Ans. inactive

Qu. Give the logged outcome of this assay for the following compound: O=C(c1ccc(O)cc1O)c1ccc(O)cc1O
Ans. inactive

Qu. Name the outcome recorded for CCC(C)OC(=O)N1CCCCC1CCO (configuration not stated) in the assay.
Ans. inactive

###

Read-out: Low-density lipoprotein receptor (LDLR), LDLR (gene 3949)
protocol_text: BSK_CASM3C_LDLR: BioMAP Diversity Plus: CASM3C Assay for Low-density lipoprotein receptor (LDLR) Biomarker Activity (AID 2283045);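 also: LDLR protein level on the cell surface quantified by ELISA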
run_conditions: primary human coronary artery smooth muscle cells; actives raise or lower the signal
The source made the active and inactive calls. Rule for the calls: active = hit-call score of the fitted dose curve at least 0.9, where 1 is the maximum; inactive = score below 0.9.
Pick from yes = active, no = inactive when you respond.

                          molecule  qualitative_label
0  CCOC(=O)NCCOc1ccc(Oc2ccccc2)cc1                 no

Below: the item to evaluate.
Qu. Could you kindly confirm the outcome this assay logged for CCN(CC)C(=O)c1cccc(C)c1 ?
Ans. no

###

measurement_target: zebrafish Estrogen Receptor (ESR1), esr1 (gene 259252) (UniProt P57717)
Sequence (P57717 whole entry, looked up): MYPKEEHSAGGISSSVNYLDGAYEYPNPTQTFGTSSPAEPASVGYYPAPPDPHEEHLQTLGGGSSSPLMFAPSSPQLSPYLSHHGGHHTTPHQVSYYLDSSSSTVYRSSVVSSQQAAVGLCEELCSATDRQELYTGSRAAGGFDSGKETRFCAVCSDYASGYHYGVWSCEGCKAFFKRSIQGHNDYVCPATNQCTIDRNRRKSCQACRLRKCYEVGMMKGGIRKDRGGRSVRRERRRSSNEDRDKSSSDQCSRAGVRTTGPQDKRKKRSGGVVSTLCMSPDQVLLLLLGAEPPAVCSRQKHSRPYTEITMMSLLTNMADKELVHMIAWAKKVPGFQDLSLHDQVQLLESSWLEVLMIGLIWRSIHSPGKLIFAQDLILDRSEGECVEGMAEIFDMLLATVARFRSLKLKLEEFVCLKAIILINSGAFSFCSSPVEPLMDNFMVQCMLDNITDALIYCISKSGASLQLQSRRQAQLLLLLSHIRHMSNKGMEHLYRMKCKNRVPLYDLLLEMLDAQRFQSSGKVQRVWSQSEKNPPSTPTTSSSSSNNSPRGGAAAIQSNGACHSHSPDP
protocol_text: ATG_zfER1_XSP1: Attagene TRANS-FACTORIAL Multi-Species (XSP1) HepG2 Assay for zebrafish Estrogen Receptor (ESR1) (AID 2283772)
Records with an inconclusive call do not appear. Active and inactive are the calls of the source. The calls were made as follows: active = hit-call score of the fitted dose curve at least 0.9, where 1 is the maximum; inconclusive = response in the unintended direction; inactive = score below 0.9.
Can you answer with just one of these options? active, inactive

>>> df
                        compound  qualitative_label
0  CC(C)(c1ccc(O)cc1)c1ccc(O)cc1             active

Qu. Please state the recorded outcome for this compound: O=C(c1ccc(O)cc1O)c1ccc(O)cc1O
Ans. active

Qu. For CC(=O)S[C@@H]1CC2=CC(=O)CC[C@]2(C)[C@H]2CC[C@@]3(C)[C@@H](CC[C@@]34CCC(=O)O4)[C@H]12 , which call appears in the assay record?
Ans. inactive

Qu. For this compound, state the assay outcome: C#C[C@]1(O)CC[C@H]2[C@@H]3CCC4=CC(=O)CC[C@@H]4[C@H]3CC[C@@]21CC
Ans. inactive

Qu. # fetch the recorded call for C=CCOC(Cn1ccnc1)c1ccc(Cl)cc1Cl (stereo not drawn) here
Ans. inactive

###

Read-out: ABC Transporter (ABCC2), ABCC2 (gene 1244)
protocol_text: LTEA_HepaRG_ABCC2: Life Technologies and Expression Analysis (LTEA) Assay for ABC Transporter (ABCC2) using HepaRG (AID 2283464)
run_conditions: mRNA level, 48 h; actives raise or lower the signal
Active and inactive are the calls of the source. How the source made its calls: active means hit-call score of the fitted dose curve at least 0.9, where 1 is the maximum; inactive means score below 0.9.
// classify into Y = active, N = inactive

Some solved cases for reference:
                                   compound  qualitative_label
0  CCCN(CCC)c1c([N+](=O)[O-])cc(C(F)(F)F)c(N)c1[N+](=O)[O-]                  Y
1                                    OB(O)O                  N

Qu. Could you check what this test reported for C[C@]12C[C@H](O)[C@H]3[C@@H](CCC4=CC(=O)CC[C@@]43C)[C@@H]1CC[C@@H]2C(=O)CO ?
Ans. Y
